Source of measurements: the Human Domainome abundance scans (Beltran et al. 2025)

Here the recorded abundance fitness is given for each entry.
B1: Membrane-associated guanylate kinase, WW and PDZ domain-containing protein 2, residues 296 to 340; numbered along this chain, Q86UL8 (parent)
chain: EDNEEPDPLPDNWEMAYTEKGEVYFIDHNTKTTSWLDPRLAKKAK

Variants of: B1
Assay: abundance fitness (aPCA) (normalised: wild type 0, dead -1); higher = more abundant; growth selection in yeast, the domain comes from the species named
Details: Homo sapiens
API note: the answer field is a bare number with no unit suffix.

Solved entries:
{"columns": ["Mutation annotation", "abundance fitness"],
 "data": [
  ["D2W", -0.029],
  ["D37W", -0.671],
  ["I26A", -0.521],
  ["I26D", -1.15],
  ["P10Y", -0.508]
]}

Lookup: Reported abundance fitness, variant L40E : ____
Found: 0.034

Lookup: Reported abundance fitness, variant N12C : ____
Found: -0.163
